# target.under.test: T1, human LILRB2 expressed on cells (293T-LILRB2, CHO-K1-LILRB2) (human, UniProt Q8N423 22-597)
# T1 construct: whole, on cells; the cell line is named under assay; also called HEK293T-LILRB2
# measurement.protocol: flow cytometry on 293T-LILRB2 cells, serial dilution, APC anti-human IgG; fit table under the graph
value.kind: Bmax (RFU)
Numbers only; they are read as RFU.

State the recorded Bmax for this entry: Antibody h#2D4 (antibody, V domains shown, Humanized variant of 11B12) VH: EVQLVESGGGLVQPGGSLRLSCAVSGYSITSGYYWNWVRQAPGKGLEWVAYISYDGNNNYNPSLKNRFTISRDTSKNTFYLQMNSLRAEDTAVYYCVREESTMITTAWFAYWGQGTLVTVSS VL: DIQMTQSPSSLSASVGDRVTITCRASENIYSNLAWYQQKPGKAPKLLIYGATNLASGVPSRFSGSGSGTDYTLTISSLQPEDFATYYCQHFWDTPYTFGQGTKVEIK
563000
